A collection of compounds and their measured MIC
- System: Acinetobacter baumannii strain AB03
- testDescription: MIC in cation-adjusted Muller-Hinton broth
- Format: cell-based
- conditionParameters: AB03, read-out: MIC A. baumannii strain AB03
Report only the number, with the unit mg/L understood.

Cc1ccc2[n+](c1)[TeH](Cl)(Cl)(Cl)[n+]1cc(C)ccc1-2 = 4

Lookup: What reported MIC corresponds to `Cl[TeH]1(Cl)(Cl)[n+]2ccccc2-c2cccc[n+]21` on Acinetobacter baumannii strain AB03?
Found: 2

Lookup: What reported MIC corresponds to Cl[TeH]1(Cl)(Cl)[n+]2ccccc2SSc2cccc[n+]21 [compound (e)] on Acinetobacter baumannii strain AB03?
Found: 4

Lookup: What reported MIC corresponds to `Cl[Te]1(Cl)Nc2ccccc2N1` on Acinetobacter baumannii strain AB03?
Found: 1

Lookup: What reported MIC corresponds to `Cl[TeH]1(Cl)(Cl)[n+]2cccc3ccc4ccc[n+]1c4c32` on Acinetobacter baumannii strain AB03?
Found: 1

Lookup: What reported MIC corresponds to `Cc1cc[n+]2c(c1)-c1cc(C)cc[n+]1[TeH]2(Cl)(Cl)Cl` on Acinetobacter baumannii strain AB03?
Found: 4
